B1: Ribonuclease, P00648 (parent)
chain: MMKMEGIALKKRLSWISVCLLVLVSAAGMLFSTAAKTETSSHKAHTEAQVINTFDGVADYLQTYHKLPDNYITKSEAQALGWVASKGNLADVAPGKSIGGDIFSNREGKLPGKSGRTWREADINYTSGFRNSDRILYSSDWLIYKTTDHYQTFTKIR

Variants of: B1
Run conditions: Bacillus amyloliquefaciens; pH 6.3; 25 °C; Urea; Fluorescence; MES 50 mM; NaCl 0.15 M; reversible: yes; structure 1BNI; whole UniProt chain shown
Measured ddG of mutation (higher = less stable) of individual entries

# Mut, ddG of mutation (higher = less stable) [kcal/mol]
records = [
    ("I123T", 2.69),
    ("I51A I123V", 1.86),
    ("I51A I98V", 2.63),
    ("I51A Y125F", 2.53),
]

The values you see were collected from FireProtDB (doi:10.1021/bi00212a026).
